Molecular target: human D2 receptors (Homo sapiens)
Assay: Inhibition of [^3 H]spiperone binding to human D2 receptors
pIC50: −log10 of the molar value.
# pIC50 values compiled below

# Compound, pIC50
data = [
    ("CCN(CC)CCCOc1ccc(-c2nc3ccccc3n2C/C=C/Cn2c(-c3ccccc3)nc3ccccc32)cc1", 5.19),
    ("CCN(CC)CCNC(=O)c1ccc(-c2nc3ccccc3n2CCCCn2c(-c3ccc(C(=O)NCCN(CC)CC)cc3)nc3ccccc32)cc1", 5.51),
    ("CCCCN(CCCC)CCCOc1ccc(-c2nc3ccccc3n2C/C=C/Cn2c(-c3ccc(OCCCN(CCCC)CCCC)cc3)nc3ccccc32)cc1", 6.37),
    ("NCCCOc1ccc(-c2nc3ccccc3n2C/C=C/Cn2c(-c3ccc(OCCCN4CCN(c5ccccc5)CC4)cc3)nc3ccccc32)cc1", 6.10),
    ("CCN1CCCC1CNC(=O)c1ccc(-c2nc3ccccc3n2CCCCn2c(-c3ccc(C(=O)NCC4CCCN4CC)cc3)nc3ccccc32)cc1 (stereo not drawn)", 5.85),
    ("CCN(CC)CCCOc1ccc(-c2nc3ccccc3n2CCCCn2c(-c3ccc(OCCCN(CC)CC)cc3)nc3ccccc32)cc1", 5.97),
]

----------
Biological target: human D2 receptors (Homo sapiens, UniProt P14416)
Sequence (P14416 whole entry): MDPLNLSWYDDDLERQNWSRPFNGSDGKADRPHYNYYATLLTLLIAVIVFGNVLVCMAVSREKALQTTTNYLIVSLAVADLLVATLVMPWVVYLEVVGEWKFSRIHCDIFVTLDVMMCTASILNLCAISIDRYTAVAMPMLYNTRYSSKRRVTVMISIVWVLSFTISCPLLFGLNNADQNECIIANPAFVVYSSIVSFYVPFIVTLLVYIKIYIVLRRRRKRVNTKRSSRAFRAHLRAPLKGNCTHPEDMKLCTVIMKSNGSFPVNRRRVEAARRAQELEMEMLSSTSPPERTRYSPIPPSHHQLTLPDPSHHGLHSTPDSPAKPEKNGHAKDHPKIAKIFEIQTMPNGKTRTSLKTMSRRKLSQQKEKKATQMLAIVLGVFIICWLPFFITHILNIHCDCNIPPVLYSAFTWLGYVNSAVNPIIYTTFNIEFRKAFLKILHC
Assay: Inhibition of [^3 H]spiperone binding to human D2 receptors

# Compound, IC50
data = [
    ("CCN(CC)CCCOc1cccc(-c2nc3ccccc3n2C/C=C/Cn2c(-c3cccc(OCCCN(CC)CC)c3)nc3ccccc32)c1 [Example 7]", "2450 nM"),
    ("CC(C)N(C)CCCOc1ccc(-c2nc3ccccc3n2C/C=C/Cn2c(-c3ccc(OCCCN(C)C(C)C)cc3)nc3ccccc32)cc1 [Example 9]", "200 nM"),
    ("CCCN(CCC)CCCOc1ccc(-c2nc3ccccc3n2CCCCn2c(-c3ccc(OCCCN(CCC)CCC)cc3)nc3ccccc32)cc1 [Example 11]", "2740 nM"),
]

----------
pIC50: −log10 of the molar value.
Quick record: pIC50, human D3 receptors (Homo sapiens).
Endpoint: pIC50

# Smi, Endpoint, Reported value
records = [
    ("CCCN(CCC)CCCOc1ccc(-c2nc3ccccc3n2C/C=C/Cn2c(-c3ccc(OCCCN(CCC)CCC)cc3)nc3ccccc32)cc1", "pIC50", 8.30),
    ("CCN(CC)CCCOc1ccc(-c2nc3ccccc3n2CCCCn2c(-c3ccc(OCCCN(CC)CC)cc3)nc3ccccc32)cc1", "pIC50", 7.44),
    ("CN(C)CCCOc1ccc(-c2nc3ccccc3n2C/C=C/Cn2c(-c3ccc(OCCCN(C)C)cc3)nc3ccccc32)cc1", "pIC50", 6.84),
]

----------
Molecular target: human D3 receptors (Homo sapiens, UniProt P35462)
Sequence (P35462 whole entry): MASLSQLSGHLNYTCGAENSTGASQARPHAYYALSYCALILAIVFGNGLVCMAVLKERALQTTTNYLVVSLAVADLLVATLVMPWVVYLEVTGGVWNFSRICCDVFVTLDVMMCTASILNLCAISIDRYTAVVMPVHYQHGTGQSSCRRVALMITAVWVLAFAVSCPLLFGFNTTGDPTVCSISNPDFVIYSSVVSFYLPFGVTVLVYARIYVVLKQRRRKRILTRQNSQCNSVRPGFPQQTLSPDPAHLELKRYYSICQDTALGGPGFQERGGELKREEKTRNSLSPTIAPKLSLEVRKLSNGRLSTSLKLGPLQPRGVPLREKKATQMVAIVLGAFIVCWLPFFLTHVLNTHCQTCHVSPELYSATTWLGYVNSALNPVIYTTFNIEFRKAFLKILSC
Threshold-based label: IC50 under 20 nM gives y, IC50 not under 20 nM gives n.

# Compound, Assigned label
records = [
    ("NCCCOc1ccc(-c2nc3ccccc3n2C/C=C/Cn2c(-c3ccc(OCCCN4CCN(c5ccccc5)CC4)cc3)nc3ccccc32)cc1", "y"),
    ("CCN(CC)CCCOc1cccc(-c2nc3ccccc3n2C/C=C/Cn2c(-c3cccc(OCCCN(CC)CC)c3)nc3ccccc32)c1", "y"),
    ("CCN1CCCC1CNC(=O)c1ccc(-c2nc3ccccc3n2CCCCn2c(-c3ccc(C(=O)NCC4CCCN4CC)cc3)nc3ccccc32)cc1 (stereo not drawn)", "n"),
    ("CCN(CC)CCNC(=O)c1ccc(-c2nc3ccccc3n2CCCCn2c(-c3ccc(C(=O)NCCN(CC)CC)cc3)nc3ccccc32)cc1", "n"),
    ("C(=C\\Cn1c(-c2ccc(OCCCN3CCCC3)cc2)nc2ccccc21)/Cn1c(-c2ccc(OCCCN3CCCC3)cc2)nc2ccccc21", "y"),
    ("C(=C\\Cn1c(-c2ccc(OCCCN3CCCCC3)cc2)nc2ccccc21)/Cn1c(-c2ccc(OCCCN3CCCCC3)cc2)nc2ccccc21", "y"),
]
